All values here come from patent US9346815B2.

target: isolated recombinant JAK1 kinase domain (Homo sapiens (Human), UniProt P23458); assay: JAK1 enzyme assay (Caliper LabChip, peptide phosphorylation); format: biochemical; details: isolated recombinant JAK1 kinase domain, 25 μM ATP
Sequence (P23458 875-1153): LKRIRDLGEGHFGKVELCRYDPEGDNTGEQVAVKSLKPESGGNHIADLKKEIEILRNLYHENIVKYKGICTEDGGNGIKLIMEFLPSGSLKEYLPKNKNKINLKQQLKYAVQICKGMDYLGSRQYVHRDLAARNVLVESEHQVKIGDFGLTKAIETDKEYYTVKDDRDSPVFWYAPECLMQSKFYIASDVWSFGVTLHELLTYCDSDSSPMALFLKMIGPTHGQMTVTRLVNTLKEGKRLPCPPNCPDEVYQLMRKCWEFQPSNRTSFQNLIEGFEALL
REPORTED PROPERTY: Ki

Ask | Report Ki for CCOC(=O)CCCN1CCC(n2cc(NC(=O)c3c(N)nn4cccnc34)c(-c3cc(Cl)ccc3OC(F)F)n2)CC1 please.
Reply | 0.78 nM

Ask | Look at this molecule and give its reported Ki. O=C(Nc1cn(CCNCc2ccccn2)nc1-c1cc(Cl)ccc1OC(F)F)c1cnn2cccnc12
Reply | 0.62 nM

Ask | GET /values?readout=Ki&item= O=C(Nc1cn([C@@H]2CCNC[C@H]2O)nc1-c1cc(Cl)ccc1OC(F)F)c1cnn2cccnc12
Reply | 0.93 nM

Ask | Could you share which Ki value was measured for O=C(Nc1sc(-c2ccc(CN3CC(F)(F)C3)cc2)nc1-c1cc(Cl)ccc1OC(F)F)c1cnn2cccnc12 ?
Reply | 2.93 nM

Ask | Please look up its Ki: O=C(Nc1cn(CC(=O)N2C[C@H]3CN(CC4(O)CCCCC4)C[C@H]3C2)nc1-c1cc(Cl)ccc1OC(F)F)c1cnn2cccnc12
Reply | 0.58 nM

Ask | Look up Ki: CN(C)C(=O)CN1CCC(CN2CCN(C(=O)Cn3cc(NC(=O)c4cnn5cccnc45)c(-c4cc(Cl)ccc4OC(F)F)n3)CC2)CC1
Reply | 0.79 nM

Ask | Quick one: Ki of O=C(Nc1cn(CC(=O)N2CCC(NC3CCC3)CC2)nc1-c1cc(Cl)ccc1OC(F)F)c1cnn2cccnc12 ?
Reply | 0.91 nM
